EXPERIMENT DESCRIPTION: Cytotoxicity, cell viability assay in normal cells
Format: cell-based
EXPERIMENTAL SETUP: human, normal B-cells from healthy donors, B-cells, Con. 1 μM, fraction of 0 μM control; read-out: relative cell viability (Fig 6c), replicates
Protocol: Human peripheral blood mononuclear cells (PBMCs), normal T-cells and B-cells were provided by the University of Pennsylvania Human Immunology Core (HIC), and Patient-derived xenografts (PDXs) were obtained from Fox Chase Cancer Center (FCCC). […] 5000 cells as indicated were cultured in 96-well plate with 100 μl of media. […] Luminescence was detected using a multi-mode reader Cytation 5 (BioTek, Winooski, VT). […]
REPORTED METRIC: viability at 1 μM (%)
Return type: number; implicit unit %.

STRUCTURE SMILES STRING	UNIT ANNOTATION	viability at 1 μM
C[C@H](Nc1ncnc2nc[nH]c12)c1cc2cccc(Cl)c2c(=O)n1-c1ccccc1	%	72.7
COc1c(OCCCN2CCOCC2)ccc2c1N=C(NC(=O)c1cnc(N)nc1)N1CCN=C21	%	52.6
CC[C@H](Nc1ncnc2[nH]cnc12)c1nc2cccc(F)c2c(=O)n1-c1ccccc1	%	81.2

Now for another entry.
Task: Field request: viability at 1 μM | item: C[C@H](NC(=O)c1c(N)nn2cccnc12)c1cc2cccc(C#Cc3cnn(C)c3)c2c(=O)n1-c1ccccc1
Result: 93.7
